# Protocol Description: PSAC antagonists in infected red cells, primary screen, cell-based, P. falciparum Indochina, OD700, 2 h (AID 1155);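 also: lysis reports solute entry through the parasite surface anion channel PSAC; channel blockers reduce lysis of infected cells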
# Condition Summary: P. falciparum Indochina infected erythrocytes, osmotic lysis OD700, called active from +8 up or from −8 down
The source made the active and inactive calls.
Outcome codes: active, inactive

[
  {
    "Molecule": "CC(C)C[C@@H]1NC(=O)[C@H]2C[C@@H](C(=O)NCCCC[N+](C)(C)C)[C@@H](c3cccc(OCCO)c3)N2C1=O",
    "Class": "inactive"
  },
  {
    "Molecule": "CC(C)(C)OC(=O)CC[C@@]1(C(=O)NCc2ccccc2)N=C(c2ccc(OCCCO)cc2)O[C@@H]1c1ccccc1CN=[N+]=[N-]",
    "Class": "active"
  },
  {
    "Molecule": "COc1ccc(CCNC(=O)[C@@]2(Sc3ccc(C)cc3)CC(=O)N(Cc3ccccc3)[C@@H]2c2ccc(CO)cc2I)cc1",
    "Class": "inactive"
  },
  {
    "Molecule": "COCCOC(=O)N1C(=O)[C@@]2(c3cc(C#CC4(O)CCCCCC4)ccc31)[C@H](c1ccc(O)cc1)N1[C@H](c3ccccc3)[C@H](c3ccccc3)OC(=O)[C@H]1[C@@H]2C(N)=O",
    "Class": "inactive"
  },
  {
    "Molecule": "C=CCN1C(=O)[C@]2(O[C@H](CCn3cc([C@H](O)c4ccccc4)nn3)[C@@H]([Si](C)(C)c3ccc(OC)cc3)[C@@H]2C)c2cc(N3CCOC3=O)ccc21",
    "Class": "inactive"
  },
  {
    "Molecule": "C=CCC(OC(C)=O)[C@@H]1[C@@H](N(Cc2cc3ccccc3o2)C(=O)c2ccc(-c3ccccc3)cc2)c2cc(OCCCO)ccc2N1C(=O)c1ccc(-c2ccccc2)cc1 (stereo partly specified)",
    "Class": "inactive"
  },
  {
    "Molecule": "CN1C=C(C(=O)OCCS(C)(=O)=O)C(C(=O)OCCS(C)(=O)=O)=CC(CCCO)=CC1c1cccs1 (stereo unspecified)",
    "Class": "inactive"
  },
  {
    "Molecule": "CN(C)CCCC[C@@H]1NC(=O)[C@@H]2C[C@H](C(=O)NCCCCCNC(=O)CS)[C@H](c3cccc(OCCO)c3)N2C1=O",
    "Class": "inactive"
  },
  {
    "Molecule": "NC(=O)NCC#Cc1ccc2c(c1)[C@]1(C(=O)N2)[C@H](c2ccc(OCCO)cc2)N2[C@H](c3ccccc3)[C@H](c3ccccc3)OC(=O)[C@H]2[C@@H]1C(=O)Nc1nc2ccccc2s1",
    "Class": "inactive"
  },
  {
    "Molecule": "C=CCNC(=O)[C@@H]1[C@H]2C(=O)O[C@H](c3ccccc3)[C@H](c3ccccc3)N2[C@H](c2ccc(O)cc2)[C@@]12C(=O)N(C(=O)OCCOC)c1ccc(C#Cc3ccc(OC)cc3)cc12",
    "Class": "inactive"
  },
  {
    "Molecule": "COCCCNC(=O)[C@@]1(Cc2ccccc2)N=C(c2ccc(OCCCO)cc2)O[C@H]1c1ccccc1N=[N+]=[N-]",
    "Class": "active"
  },
  {
    "Molecule": "CCOC(=O)C[C@H]1[C@H](OC(=O)c2ccc(C(=O)c3ccccc3)cc2)[C@@H](NC(=O)Cc2ccc(OC)cc2)c2cc(OCCCO)ccc2N1C(=O)Cc1ccc(OC)cc1",
    "Class": "inactive"
  },
  {
    "Molecule": "COc1ccc([Si](C)(C)[C@@H]2[C@@H](CC(=O)N3CCC[C@H]3CO)O[C@]3(C(=O)N(Cc4ccc(N5CCC5=O)cc4)c4ccccc43)[C@H]2C)cc1",
    "Class": "inactive"
  },
  {
    "Molecule": "O=C(O)[C@H]1C[C@H]2C(=O)NCC(=O)N2[C@H]1c1cccc(OCCO)c1",
    "Class": "inactive"
  },
  {
    "Molecule": "C=CCC1(CC=C)C[C@H]2CO[C@H](c3ccc(OC)cc3)N2C1=O",
    "Class": "inactive"
  },
  {
    "Molecule": "COCCOC(=O)N1C(=O)[C@@]2(c3cc(C#CCNC(N)=O)ccc31)[C@H](c1ccccc1OCCO)N1[C@H](c3ccccc3)[C@H](c3ccccc3)OC(=O)[C@H]1[C@@H]2C(=O)Nc1nc2ccccc2s1",
    "Class": "inactive"
  },
  {
    "Molecule": "CC(C)CCC[C@@H](C)[C@H]1CC[C@@]2(C)C3=C(CC[C@]12C)[C@@]1(C)CC[C@H](OC(=O)CCl)C(C)(C)C1CC3 (stereo partly specified)",
    "Class": "inactive"
  },
  {
    "Molecule": "C/C=C/[C@@H](CCn1cc(CCO[Si](C(C)C)(C(C)C)C(C)C)nn1)[Si](C)(C)c1ccc(OC)cc1",
    "Class": "inactive"
  },
  {
    "Molecule": "CC(C)NC(=O)[C@@H]1c2ccccc2C(=O)N(Cc2cc(F)cc(C(F)(F)F)c2)[C@H]1c1ccc(CO)cc1",
    "Class": "inactive"
  },
  {
    "Molecule": "[N-]=[N+]=NCc1ccccc1C[C@]1(C(=O)NCc2ccccc2)N=C(c2ccc(OCCCO)cc2)O[C@H]1c1ccccc1",
    "Class": "inactive"
  },
  {
    "Molecule": "CC(C)(C)OC(=O)CC[C@]1(C(=O)NCc2ccccc2)COC(c2ccc(OCCCO)cc2)=N1",
    "Class": "inactive"
  },
  {
    "Molecule": "COCCOC(=O)N1C(=O)[C@@]2(c3cc(C#CCNC(N)=O)ccc31)[C@H](C(=O)NC[C@H](O)c1ccccc1)[C@H]1C(=O)O[C@H](c3ccccc3)[C@H](c3ccccc3)N1[C@@H]2c1ccc(O)cc1",
    "Class": "inactive"
  },
  {
    "Molecule": "COC(=O)C1=CC(c2ccc(CO)cc2)=CC(C2CC2)N(C)C=C1C(=O)OC (stereo unspecified)",
    "Class": "inactive"
  },
  {
    "Molecule": "COc1ccc([Si](C)(C)[C@H]2[C@H](CC(=O)N3Cc4ccccc4C[C@H]3CO)O[C@@]3(C(=O)N(Cc4cccc(N5C(=O)COc6ccccc65)c4)c4ccccc43)[C@@H]2C)cc1",
    "Class": "inactive"
  },
  {
    "Molecule": "CCCNC(=O)[C@@H]1c2ccccc2C(=O)N(Cc2cc(C(F)(F)F)cc(C(F)(F)F)c2)[C@H]1c1ccc(CO)cc1",
    "Class": "inactive"
  },
  {
    "Molecule": "C[N+](C)(C)CCCC[C@@H]1NC(=O)[C@@H]2C[C@H](C(=O)NCCCCCNC(=O)CS)[C@H](c3ccc(O)cc3)N2C1=O",
    "Class": "inactive"
  }
]
